test system: HeLa; experiment: Cytotoxicity against human HeLa cells assessed as growth inhibition after 48 hrs by MTT assay; assay type: functional, cell-based
Reported IC50 values for the following molecules.
Dear colleague, please return just the value in µM, with no unit written.

Below, each entry is followed by its recorded IC50 result.
C[C@H](NC(=O)[C@]12CCC(C)(C)C[C@H]1C1=CC[C@@H]3[C@@]4(C)CC=C(B5OC(C)(C)C(C)(C)O5)C(C)(C)[C@@H]4CC[C@@]3(C)[C@]1(C)CC2)C(=O)O : 30.5
CC1(C)CC[C@]2(C(N)=O)CC[C@]3(C)C(=CC[C@@H]4[C@@]5(C)CC=C(B6OC(C)(C)C(C)(C)O6)C(C)(C)[C@@H]5CC[C@]43C)[C@@H]2C1 : 34.7

Now consider a different molecule.
Prompt line: For the molecule CC1(C)CC[C@]2(C(=O)NCC(=O)O)CC[C@]3(C)C(=CC[C@@H]4[C@@]5(C)CC=C(B6OC(C)(C)C(C)(C)O6)C(C)(C)[C@@H]5CC[C@]43C)[C@@H]2C1 , give its measured IC50 value.
Response line: 28
